species: Rattus norvegicus; test: Open TG-GATES - Regimen: Daily Repeat; format: toxicity, organism-based, Sprague-Dawley; design: regimen Daily Repeat, gender Male, age 6 weeks; details: in vivo, po, 0 mg/kg, […], tissue Blood, route gavage, dose level Control, time 28 day
Entries and their Mono values follow.
Give just the numeric value; % need not be written.

As a guide, the following entries are already answered.
State, in one line, measured Mono of Cc1cccc(C)c1OCC(C)N (centres undefined) [MEXILETINE] 1.6

Look up Mono of C=C(C)[C@H]1Cc2c(ccc3c2O[C@@H]2COc4cc(OC)c(OC)cc4[C@@H]2C3=O)O1 [ROTENONE] and report it. 7.2

Give Mono for the following compound: C[C@H]1C(=O)O[C@@H]2CCN3CC=C(COC(=O)[C@](C)(O)[C@]1(C)O)[C@H]23 [MONOCROTALINE] 2

Kindly indicate its recorded Mono. Item: O=[N+]([O-])c1ccc(O)c([N+](=O)[O-])c1 [2,4-DINITROPHENOL] 5.6

Give the reported value of Mono for this record: O=C1CN(/N=C/c2ccc([N+](=O)[O-])o2)C(=O)N1 [NITROFURANTOIN] 1.6

Further cases:
Provide Mono value for the following compound: Cn1cc[nH]c1=S [METHIMAZOLE] 2.2

Using the record for C[C@H]1O[C@H](O[C@H]2[C@H](O)[C@@H](O)[C@@H](O[C@H]3[C@H](O)[C@@H](O)C(O)O[C@@H]3CO)O[C@@H]2CO)[C@H](O)[C@@H](O)[C@@H]1N[C@H]1C=C(CO)[C@@H](O)[C@H](O)[C@H]1O (some centres undefined) [ACARBOSE] , state its measured Mono. 2

Quick one: give measured Mono for CCOC(=O)C(C)(C)Oc1ccc(Cl)cc1 [CLOFIBRATE] 2.6

Tell me its Mono given OCCN1CCN(CCCN2c3ccccc3Sc3ccc(C(F)(F)F)cc32)CC1 [FLUPHENAZINE] as the entry. 4.8

====

species on record: Rattus norvegicus; test: Open TG-GATES - Regimen: Daily Repeat; type: toxicity, organism-based, Sprague-Dawley; parameters: regimen Daily Repeat, gender Male, age 6 weeks; details: in vivo, po, 0 mg/kg, […], tissue Plasma, route gavage, dose level Control, time 14 day
Reported K values are given for each entry in this list.

These solved cases illustrate the format of a correct answer.
For C[C@H]1O[C@H](O[C@H]2[C@H](O)[C@@H](O)[C@@H](O[C@H]3[C@H](O)[C@@H](O)C(O)O[C@@H]3CO)O[C@@H]2CO)[C@H](O)[C@@H](O)[C@@H]1N[C@H]1C=C(CO)[C@@H](O)[C@H](O)[C@H]1O (some centres undefined) [ACARBOSE] , write its K. 4.1 meq/L

Identify measured K associated with O=C1CN(/N=C/c2ccc([N+](=O)[O-])o2)C(=O)N1 [NITROFURANTOIN] 3.7 meq/L

Provide K value for the following compound: OCCN1CCN(CCCN2c3ccccc3Sc3ccc(C(F)(F)F)cc32)CC1 [FLUPHENAZINE] 4.5 meq/L

Please supply the value of reported K for the item C=C(C)[C@H]1Cc2c(ccc3c2O[C@@H]2COc4cc(OC)c(OC)cc4[C@@H]2C3=O)O1 [ROTENONE] 4.5 meq/L

Quote K reported for Cn1cc[nH]c1=S [METHIMAZOLE] please. 4.3 meq/L

Give reported K value for Cc1cccc(C)c1OCC(C)N (centres undefined) [MEXILETINE] 4.2 meq/L

Respond only with K recorded for CCOC(=O)C(C)(C)Oc1ccc(Cl)cc1 [CLOFIBRATE] 3.8 meq/L

Using the record for O=[N+]([O-])c1ccc(O)c([N+](=O)[O-])c1 [2,4-DINITROPHENOL] , state its measured K. 4.6 meq/L

--- query ---
For the compound C[C@H]1C(=O)O[C@@H]2CCN3CC=C(COC(=O)[C@](C)(O)[C@]1(C)O)[C@H]23 [MONOCROTALINE] , give its measured K value. 4.3 meq/L

These entries and their values trace back to ChEMBL document CHEMBL3885861.
